Values compiled from patent US6329392A.

target: NK1 receptor (Cavia porcellus); construct: as evaluated in guinea pig lungs (Keystone Biologicals, Cleveland, Ohio); tissue Keystone Biologicals, Cleveland, Ohio; host or cells: guinea pig lung membranes; assay: Antagonism of iodinated tachykinin (substance P) binding to NK1 receptors in guinea pig lungs; settings: guinea pig lungs, 0.1 nM 125I-Bolton Hunter Lys-3 labeled substance P, room temperature 90 min, pH 7.4; read-out: NK1 Receptor Binding Affinity, IC50
Sequence (P30547 whole entry): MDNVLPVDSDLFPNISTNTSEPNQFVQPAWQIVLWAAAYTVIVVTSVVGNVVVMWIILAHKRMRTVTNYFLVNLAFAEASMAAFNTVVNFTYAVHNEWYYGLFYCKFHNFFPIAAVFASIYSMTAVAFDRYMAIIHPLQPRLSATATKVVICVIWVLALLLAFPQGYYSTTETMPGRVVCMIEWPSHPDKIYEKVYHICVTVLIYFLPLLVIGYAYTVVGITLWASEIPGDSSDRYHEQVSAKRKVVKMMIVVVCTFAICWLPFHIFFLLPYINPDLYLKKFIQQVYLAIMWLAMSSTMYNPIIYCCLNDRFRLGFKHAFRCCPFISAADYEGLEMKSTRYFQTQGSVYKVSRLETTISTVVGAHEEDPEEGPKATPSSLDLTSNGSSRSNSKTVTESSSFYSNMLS
The following molecules are shown together with reported pIC50 values.
A value of pIC50 is the negative decimal logarithm of a concentration given in moles per litre.

>>> measured_result("COc1ccc(C2(CCN3CCC(C(=O)c4nc5ccccc5n4Cc4ccc(F)cc4)CC3)CCN(C(=O)c3cc(OC)c(OC)c(OC)c3)C2)cc1OC (stereo not drawn)")
7.51
>>> measured_result("CCOc1cc(C(=O)N2CCC(CCN3CCC(C(=O)c4nc5ccccc5n4Cc4ccc(F)cc4)CC3)(c3ccc(OC)c(OC)c3)C2)cc(OCC)c1OCC (stereo not drawn)")
5.91

Here's the next entry for you.
Any idea what its pIC50 is? The molecule is COc1cc(C(=O)N2CCC(CCN3CCC(C(=O)c4nc5ccccc5n4Cc4ccc(F)cc4)CC3)(c3ccc4c(c3)OCO4)C2)cc(OC)c1OC (stereo not drawn) 6.84
